biological target: HCV NS3 protease domain (Hepatitis C virus genotype 1b); construct: The first 181 amino acids of NS3 (residues 1027-1207 of the viral polyprotein); hexa-histidine (C); made in house; host or cells: E. coli BL21/DE3 pLysS; test: biochemical; settings: Enzyme Assay 1 (HCV NS3 Protease Domain Peptide Cleavage Assay) activity, apparent Ki class
Sequence (Q9WMX2 1027-1207, other chains not shown): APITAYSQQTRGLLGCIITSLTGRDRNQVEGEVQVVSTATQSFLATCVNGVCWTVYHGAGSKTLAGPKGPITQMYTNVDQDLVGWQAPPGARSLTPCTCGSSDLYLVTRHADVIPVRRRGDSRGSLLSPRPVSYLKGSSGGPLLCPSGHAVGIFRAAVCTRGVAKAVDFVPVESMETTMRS
Ki reference
assay-metric: Ki

molecule	assay-metric	observed-value
CCC[C@H](NC(=O)[C@@H]1C[C@]2(CC(c3cccc(Cl)c3)=NO2)CN1C(=O)[C@@H](NC(=O)O[C@H]1CO[C@H]2OCC[C@H]21)C(C)(C)C)C(=O)C(=O)NC1CC1	Ki	100 to 500 nM
CCC[C@H](NC(=O)[C@@H]1C[C@]2(CC(c3cccc(Cl)c3)=NO2)CN1C(=O)[C@@H](NC(=O)NCC)C(C)(C)C)C(=O)C(=O)NC1CC1	Ki	< 100 nM
CCC[C@H](NC(=O)[C@@H]1C[C@]2(CC(c3cc(C(F)(F)F)cc(C(F)(F)F)c3)=NO2)CN1C(=O)[C@@H](NC(=O)O[C@H]1CCOC1)C(C)(C)C)C(=O)C(=O)NC1CC1	Ki	100 to 500 nM
CCC[C@H](NC(=O)[C@@H]1C[C@]2(CC(c3cccc(Cl)c3)=NO2)CN1C(=O)[C@@H](NC(=O)[C@@H]1CCCN1C(=O)c1ccccc1)C(C)(C)C)C(=O)C(=O)NC1CC1	Ki	100 to 500 nM
CCC[C@H](NC(=O)[C@@H]1C[C@]2(CC(c3cccc(Cl)c3)=NO2)CN1C(=O)[C@@H](NC(=O)CC1CCCCC1)C(C)(C)C)C(=O)C(=O)NCCc1c[nH]c2cc(OC)ccc12	Ki	> 500 nM
CCC[C@H](NC(=O)[C@@H]1C[C@]2(CC(c3cccc(Cl)c3)=NO2)CN1C(=O)[C@@H](NC(=O)CC1CCCCC1)C(C)(C)C)C(=O)C(=O)NCCOC	Ki	> 500 nM
CCC[C@H](NC(=O)[C@@H]1C[C@]2(CC(c3cc(Cl)c(OC)c(OC)c3)=NO2)CN1C(=O)[C@@H](NC(=O)CC1CCCCC1)C(C)(C)C)C(=O)C(=O)NC1CC1	Ki	< 100 nM
CCC[C@H](NC(=O)[C@@H]1C[C@]2(CC(c3cccc(Cl)c3)=NO2)CN1C(=O)[C@@H](NC(=O)OCCc1ccsc1)C(C)(C)C)C(=O)C(=O)NC1CC1	Ki	100 to 500 nM
CCCC1=NO[C@]2(C1)C[C@@H](C(=O)N[C@@H](CCC)C(=O)C(=O)NC1CC1)N(C(=O)[C@@H](NC(=O)OC1CCOC1)C(C)(C)C)C2 (some centres unmarked)	Ki	> 500 nM
CCC[C@H](NC(=O)[C@@H]1C[C@]2(CC(c3cccc(Cl)c3)=NO2)CN1C(=O)[C@@H](NC(=O)CC1CCCCC1)C(C)(C)C)C(=O)C(=O)NC[C@H]1CCCO1	Ki	> 500 nM
CCC[C@H](NC(=O)[C@@H]1C[C@]2(CC(c3cccc(Cl)c3)=NO2)CN1C(=O)[C@@H](NC(=O)CC1CCCCC1)C(C)(C)C)C(=O)C(=O)N1CC(OCC)C1	Ki	100 to 500 nM
CC(C)(C)NC(=O)N[C@H](C(=O)N1C[C@@]2(CC(c3cccc(Cl)c3)=NO2)C[C@H]1C(=O)NC(CC1CCC1)C(=O)C(=O)NC1CC1)C(C)(C)C (some centres unmarked)	Ki	< 100 nM
CCC[C@H](NC(=O)[C@@H]1C[C@]2(CC(c3cccc(Cl)c3)=NO2)CN1C(=O)[C@@H](NC(=O)CC(C)(C)O)C(C)(C)C)C(=O)C(=O)NC1CC1	Ki	100 to 500 nM
C=CCOC(=O)N[C@H](C(=O)N1C[C@@]2(CC(c3cccc(Cl)c3)=NO2)C[C@H]1C(=O)N[C@]1(C(=O)O)C[C@H]1C=C)C(C)(C)C	Ki	> 500 nM
CCC[C@H](NC(=O)[C@@H]1C[C@]2(CC(c3cccc(Cl)c3)=NO2)CN1C(=O)[C@@H](Nc1ncc(C)cc1[N+](=O)[O-])C(C)(C)C)C(=O)C(=O)NC1CC1	Ki	> 500 nM
CCC[C@H](NC(=O)[C@@H]1C[C@]2(CC(c3cccc(Cl)c3)=NO2)CN1C(=O)[C@@H](NC(=O)CC1(C)CCOCC1)C(C)(C)C)C(=O)C(=O)NC1CC1	Ki	100 to 500 nM
CCC[C@H](NC(=O)[C@@H]1C[C@]2(CC(c3cc(F)c(F)c(F)c3)=NO2)CN1C(=O)O[C@H]1CCOC1)C(=O)C(=O)NC1CC1	Ki	> 500 nM
CCC[C@H](NC(=O)[C@@H]1C[C@]2(CC(c3cccc(Cl)c3)=NO2)CN1C(=O)[C@@H](NC(=O)CC(C)(O)C(F)(F)F)C(C)(C)C)C(=O)C(=O)NC1CC1 (some centres unmarked)	Ki	100 to 500 nM
CCC[C@H](NC(=O)[C@@H]1C[C@]2(CC(c3cccc(Cl)c3)=NO2)CN1C(=O)C(NC(=O)CC1C[C@@H](C)O[C@H](C)C1)C(C)(C)C)C(=O)C(=O)NC1CC1 (some centres unmarked)	Ki	100 to 500 nM
CCC[C@H](NC(=O)[C@@H]1C[C@]2(CC(c3cccc(OC(F)(F)F)c3)=NO2)CN1C(=O)[C@@H](NC(=O)O[C@H]1CCOC1)C(C)(C)C)C(=O)C(=O)NC1CC1	Ki	100 to 500 nM
